Target: prolyl oligopeptidase (PREP) (Homo sapiens, UniProt P48147)
Sequence (P48147 1-710): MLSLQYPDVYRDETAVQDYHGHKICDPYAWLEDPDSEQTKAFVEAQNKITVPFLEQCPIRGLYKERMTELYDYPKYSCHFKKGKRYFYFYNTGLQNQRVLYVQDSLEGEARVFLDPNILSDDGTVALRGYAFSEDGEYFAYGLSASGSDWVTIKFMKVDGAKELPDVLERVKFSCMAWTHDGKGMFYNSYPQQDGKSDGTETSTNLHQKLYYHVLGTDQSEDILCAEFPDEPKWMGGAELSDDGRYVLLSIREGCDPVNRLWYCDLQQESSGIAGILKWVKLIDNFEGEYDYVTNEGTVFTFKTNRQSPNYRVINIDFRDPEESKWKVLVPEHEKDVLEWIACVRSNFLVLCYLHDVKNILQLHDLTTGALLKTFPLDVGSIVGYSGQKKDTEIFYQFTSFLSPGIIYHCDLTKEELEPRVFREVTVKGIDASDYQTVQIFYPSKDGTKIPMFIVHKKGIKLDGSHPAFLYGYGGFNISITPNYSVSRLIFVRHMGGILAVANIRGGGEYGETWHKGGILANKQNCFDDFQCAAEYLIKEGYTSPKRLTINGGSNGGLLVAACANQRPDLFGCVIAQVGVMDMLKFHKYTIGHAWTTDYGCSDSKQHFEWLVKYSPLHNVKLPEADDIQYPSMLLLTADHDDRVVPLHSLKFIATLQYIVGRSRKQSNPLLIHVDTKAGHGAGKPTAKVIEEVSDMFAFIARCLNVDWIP
Experiment: Protease inhibition (selectivity) assay, PREP, Z-Gly-Pro-AMC substrate
Settings: recombinant human PREP 0.6 nM
Numbered stars: 1 amine (or outer) side, 2 acyl side, 3 side chain; on linkers, the order of the positions; unused ones are H or OH. Bridge positions count the residues as written; N and C are the ends. Square brackets hold non-standard residues; d marks the D form. Peptide text beside a SMILES is read from it. * marks the point of attachment. X1 = O=C(O)CN1CCN(CC(=O)O)CCN(CC(=O)CCCN*)CCN(CC(=O)O)CC1; Azetidine3carboxylic = O=C(C1CN([*:1])C1)[*:2]; mXylylene = c1cc(C[*:1])cc(C[*:2])c1; CO = O=C([*:1])[*:2]; NHBu = CCCCN*
measured.parameter: IC50

>>> result("CCCCNC(=O)N[C@H]1CSCc2cccc(c2)CSC[C@@H](C(=O)N[C@@H](CCC(=O)NCCCC(=O)CN2CCN(CC(=O)O)CCN(CC(=O)O)CCN(CC(=O)O)CC2)C(=O)O)NC(=O)[C@H](Cc2ccccc2)NC(=O)[C@H](CCC(N)=O)NC(=O)[C@H]([C@@H](C)O)NC(=O)[C@@H]2CCCN2C(=O)C2CN(C2)C1=O [JHDC24] ({NHBu-CO}-C[Azetidine3carboxylic]PTQFCE(X1)-OH; linker 1-7 via mXylylene)")
"> 1000 nM"

----------
target: FAP protein (Homo sapiens, UniProt Q12884); construct: purchased Sinobiological; assay: Biacore test of compound affinity to FAP protein; details: Biacore 8K, SA chip, 15° C., 1:1 binding model; read-out: pKD (FAP) (converted)
Sequence (Q12884 whole entry): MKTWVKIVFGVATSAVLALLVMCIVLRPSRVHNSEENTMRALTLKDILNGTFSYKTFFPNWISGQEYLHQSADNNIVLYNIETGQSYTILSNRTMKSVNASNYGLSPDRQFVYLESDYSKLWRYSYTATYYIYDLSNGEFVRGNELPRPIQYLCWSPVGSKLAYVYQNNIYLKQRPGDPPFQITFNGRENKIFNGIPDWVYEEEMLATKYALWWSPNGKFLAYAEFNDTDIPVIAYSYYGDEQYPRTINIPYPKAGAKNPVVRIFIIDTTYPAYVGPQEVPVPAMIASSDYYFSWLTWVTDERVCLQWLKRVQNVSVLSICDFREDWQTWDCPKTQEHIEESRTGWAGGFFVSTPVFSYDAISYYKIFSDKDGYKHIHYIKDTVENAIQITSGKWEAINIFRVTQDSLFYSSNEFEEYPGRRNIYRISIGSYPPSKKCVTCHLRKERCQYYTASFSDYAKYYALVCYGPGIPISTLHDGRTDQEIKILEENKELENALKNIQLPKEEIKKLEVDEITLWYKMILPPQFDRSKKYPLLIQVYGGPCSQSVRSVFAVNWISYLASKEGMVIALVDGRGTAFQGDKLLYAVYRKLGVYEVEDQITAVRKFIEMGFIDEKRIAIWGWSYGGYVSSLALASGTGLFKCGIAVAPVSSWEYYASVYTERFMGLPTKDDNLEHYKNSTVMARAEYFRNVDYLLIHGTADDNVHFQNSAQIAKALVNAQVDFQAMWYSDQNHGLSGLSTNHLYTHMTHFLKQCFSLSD
Numbered stars: 1 amine (or outer) side, 2 acyl side, 3 side chain; on linkers, the order of the positions; unused ones are H or OH. Bridge positions count the residues as written; N and C are the ends. Square brackets hold non-standard residues; d marks the D form. Peptide text beside a SMILES is read from it. * marks the point of attachment. ξ: configuration not given here. TBMB(SCH2CH2NH-DOTA) = O=C(O)CN1CCN(CC(=O)O)CCN(CC(=O)NCCSCc2cc(C[*:1])cc(C[*:2])c2)CCN(CC(=O)O)CC1; NH(CH2)2O(CH2)2NHDOTA = O=C(O)CN1CCN(CC(=O)O)CCN(CC(=O)NCCOCCN*)CCN(CC(=O)O)CC1; X3 = O=C(O)CN1CCN(CC(=O)O)CCN(CC(=O)NCCOCCOCCOCCN*)CCN(CC(=O)O)CC1; DOTA = O=C(O)CN1CCN(CC(=O)O)CCN(CC(=O)*)CCN(CC(=O)O)CC1; Azetidine3carboxylic = O=C(C1CN([*:1])C1)[*:2]; mXylylene = c1cc(C[*:1])cc(C[*:2])c1; ξγGlu = O=C(O)C(CCC(=O)[*:2])N[*:1]; Ethylenediamine = C(CN[*:2])N[*:1]; Cha = N[C@@H](CC1CCCCC1)C(=O)O; d(β3hD) = NC(CC(=O)O)CC(=O)O; Octanoyl = CCCCCCCC(=O)*; Hexanoyl = CCCCCC(=O)*; CO = O=C([*:1])[*:2]; ξP = O=C(O)C1CCCN1; ξC = NC(CS)C(=O)O; NHBu = CCCCN*
Recorded Kd, one value per entry.
measured.parameter: Kd

>>> result("CCCCCC(=O)N[C@H]1CSCc2cccc(c2)CSCC(C(=O)N[C@H](CC(=O)O)CC(=O)NCCOCCNC(=O)CN2CCN(CC(=O)O)CCN(CC(=O)O)CCN(CC(=O)O)CC2)NC(=O)[C@H](Cc2ccccc2)NC(=O)[C@H](CCC(N)=O)NC(=O)[C@H]([C@@H](C)O)NC(=O)C2CCCN2C(=O)C2CN(C2)C1=O (stereo partly drawn) [JHDC36] (Hexanoyl-C[Azetidine3carboxylic][ξP]TQF[ξC][d(β3hD)]-{NH(CH2)2O(CH2)2NHDOTA}; linker 1-7 via mXylylene)")
"10 to 100 nM"
>>> result("CCCCCC(=O)N[C@H]1CSCc2cccc(c2)CSCC(C(=O)N[C@@H](CCC(=O)NCCOCCNC(=O)CN2CCN(CC(=O)O)CCN(CC(=O)O)CCN(CC(=O)O)CC2)C(=O)O)NC(=O)[C@H](Cc2ccccc2)NC(=O)[C@H](CCC(N)=O)NC(=O)[C@H]([C@@H](C)O)NC(=O)C2CCCN2C(=O)C2CN(C2)C1=O (stereo partly drawn) [JHDC06] (Hexanoyl-C[Azetidine3carboxylic][ξP]TQF[ξC]E(NH(CH2)2O(CH2)2NHDOTA)-OH; linker 1-7 via mXylylene)")
"< 10 nM"
>>> result("CCCCNC(=O)N[C@H]1CSCc2cccc(c2)CSCC(C(=O)N[C@H](CC(=O)O)CC(=O)NCCNC(=O)CN2CCN(CC(=O)O)CCN(CC(=O)O)CCN(CC(=O)O)CC2)NC(=O)[C@H](Cc2ccccc2)NC(=O)[C@H](CCC(N)=O)NC(=O)[C@H]([C@@H](C)O)NC(=O)C2CCCN2C(=O)C2CN(C2)C1=O (stereo partly drawn) [JHDC35] ({NHBu-CO}-C[Azetidine3carboxylic][ξP]TQF[ξC][d(β3hD)]-{Ethylenediamine-DOTA}; linker 1-7 via mXylylene)")
"10 to 100 nM"
>>> result("CCCCCC(=O)N[C@H]1CSCc2cccc(c2)CSCC(C(=O)N[C@@H](CCC(=O)NCCOCCOCCOCCNC(=O)CN2CCN(CC(=O)O)CCN(CC(=O)O)CCN(CC(=O)O)CC2)C(=O)O)NC(=O)[C@H](CC2CCCCC2)NC(=O)[C@H](CCC(N)=O)NC(=O)[C@H]([C@@H](C)O)NC(=O)C2CCCN2C(=O)C2CN(C2)C1=O (stereo partly drawn) [JHDC16] (Hexanoyl-C[Azetidine3carboxylic][ξP]TQ[Cha][ξC]E(X3)-OH; linker 1-7 via mXylylene)")
"10 to 100 nM"
>>> result("CCCCCCCC(=O)N[C@H]1CSCc2cc(CSCCNC(=O)CN3CCN(CC(=O)O)CCN(CC(=O)O)CCN(CC(=O)O)CC3)cc(c2)CSC[C@@H](C(=O)NC(CCC(=O)N[C@@H](CCCNC(=N)N)C(=O)NCC(=O)N[C@@H](CC(N)=O)C(=O)O)C(=O)O)NC(=O)[C@H](CC2CCCCC2)NC(=O)[C@H](CCC(N)=O)NC(=O)[C@H]([C@@H](C)O)NC(=O)C2CCCN2C(=O)C2CN(C2)C1=O (stereo partly drawn) [JHDC21] (Octanoyl-C[Azetidine3carboxylic][ξP]TQ[Cha]C[ξγGlu]RGN-OH; linker 1-7 via TBMB(SCH2CH2NH-DOTA))")
"10 to 100 nM"
>>> result("CCCCCC(=O)N[C@H]1CSCc2cccc(c2)CSCC(C(=O)N[C@@H](CCC(=O)NCCOCCNC(=O)CN2CCN(CC(=O)O)CCN(CC(=O)O)CCN(CC(=O)O)CC2)C(=O)O)NC(=O)[C@H](CC2CCCCC2)NC(=O)CNC(=O)[C@H](CCC(N)=O)NC(=O)[C@H]([C@@H](C)O)NC(=O)C2CCCN2C(=O)C2CN(C2)C1=O (stereo partly drawn) [JHDC09] (Hexanoyl-C[Azetidine3carboxylic][ξP]TQG[Cha][ξC]E(NH(CH2)2O(CH2)2NHDOTA)-OH; linker 1-8 via mXylylene)")
"10 to 100 nM"

----------
experiment: Determination of C Log P (n-octanol/water partition, gamma counts); type: physicochemical
Numbered stars: 1 amine (or outer) side, 2 acyl side, 3 side chain; on linkers, the order of the positions; unused ones are H or OH. Bridge positions count the residues as written; N and C are the ends. Square brackets hold non-standard residues; d marks the D form. Peptide text beside a SMILES is read from it. * marks the point of attachment. NH(CH2)2O(CH2)2NHDOTA = O=C(O)CN1CCN(CC(=O)O)CCN(CC(=O)NCCOCCN*)CCN(CC(=O)O)CC1; Azetidine3carboxylic = O=C(C1CN([*:1])C1)[*:2]; mXylylene = c1cc(C[*:1])cc(C[*:2])c1; Hexanoyl = CCCCCC(=O)*
measured.parameter: logP

>>> result("CCCCCC(=O)N[C@H]1CSCc2cccc(c2)CSC[C@@H](C(=O)N[C@@H](CCC(=O)NCCOCCNC(=O)CN2CCN(CC(=O)O)CCN(CC(=O)O)CCN(CC(=O)O)CC2)C(=O)O)NC(=O)[C@H](Cc2ccccc2)NC(=O)[C@H](CCC(N)=O)NC(=O)[C@H]([C@@H](C)O)NC(=O)[C@@H]2CCCN2C(=O)C2CN(C2)C1=O [^177Lu -JHDC06, metal not drawn] (Hexanoyl-C[Azetidine3carboxylic]PTQFCE(NH(CH2)2O(CH2)2NHDOTA)-OH; linker 1-7 via mXylylene)")
-2.69
